testedOn: CDK1 (cyclin B) (Homo sapiens, UniProt P06493)
Construct: purchased Invitrogen Life Technologies (assay service)
Sequence (P06493 whole entry): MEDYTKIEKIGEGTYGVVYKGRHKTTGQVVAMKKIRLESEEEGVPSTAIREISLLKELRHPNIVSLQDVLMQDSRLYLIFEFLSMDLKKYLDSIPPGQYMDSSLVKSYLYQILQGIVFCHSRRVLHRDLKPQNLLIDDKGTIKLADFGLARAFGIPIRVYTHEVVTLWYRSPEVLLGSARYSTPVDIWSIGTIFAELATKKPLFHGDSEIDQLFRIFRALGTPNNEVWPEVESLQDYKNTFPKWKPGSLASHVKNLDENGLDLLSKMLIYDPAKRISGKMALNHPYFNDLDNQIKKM
Sequence (P14635 whole entry partner): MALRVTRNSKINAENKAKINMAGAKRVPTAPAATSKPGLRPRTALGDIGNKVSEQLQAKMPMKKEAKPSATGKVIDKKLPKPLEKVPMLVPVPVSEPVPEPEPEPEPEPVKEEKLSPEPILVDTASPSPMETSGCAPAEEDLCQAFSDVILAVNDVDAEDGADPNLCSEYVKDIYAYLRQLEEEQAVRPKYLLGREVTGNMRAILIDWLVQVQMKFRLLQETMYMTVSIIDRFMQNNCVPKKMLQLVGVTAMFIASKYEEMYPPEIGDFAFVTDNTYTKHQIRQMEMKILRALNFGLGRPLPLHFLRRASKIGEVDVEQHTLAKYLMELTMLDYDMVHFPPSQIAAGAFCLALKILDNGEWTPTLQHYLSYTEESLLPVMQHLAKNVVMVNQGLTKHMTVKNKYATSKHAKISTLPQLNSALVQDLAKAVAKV
protocolDescription: Z'-LYTE kinase assay
Assay type: biochemical
Provide the reported pIC50 of each item.
Scale: negative log10 of molar concentration, which is what pIC50 denotes.

Report pIC50 for CS(=O)(=O)N1CCC(Nc2ncc3cc(C(F)F)c(=O)n([C@H]4C[C@H]5C[C@H]5C4)c3n2)CC1 tested on CDK1 (cyclin B) (Homo sapiens, UniProt P06493).
7.51

Can you check CS(=O)(=O)N1CCC(Nc2ncc3cc(C#N)c(=O)n(C4CCC(F)(F)C4)c3n2)CC1 (racemic) next?
5.96

Can you check CS(=O)(=O)N1CCC(Nc2ncc3cc(C#N)c(=O)n([C@H]4C[C@@H]5CC[C@H]4C5)c3n2)CC1 [Compound No. 387] next?
5.96

Can you check COCCS(=O)(=O)N1CCC(Nc2ncc3cc(C#N)c(=O)n(C4CCCC4)c3n2)CC1 next?
6.18

Can you check CS(=O)(=O)N1CCC(Nc2ncc3cc(C#N)c(=O)n([C@@H]4CCC(F)(F)C4)c3n2)CC1 next?
5.58

Can you check CS(=O)(=O)N1CCC(Nc2ncc3cc(C#N)c(=O)n(C4CCCC4)c3n2)CC1 next?
7.28

Can you check CS(=O)(=O)N1CCC(Nc2ncc3cc(C#N)c(=O)n(C4CCC4)c3n2)CC1 next?
6.48

Can you check CS(=O)(=O)N1CCC(Nc2ncc3cc(C#N)c(=O)n(CC4CCCCC4)c3n2)CC1 next?
5.86

Can you check CS(=O)(=O)N1CC[C@H](Nc2ncc3cc(C#N)c(=O)n(C4CCCC4)c3n2)[C@H](F)C1 next?
6.63

Can you check Cn1ccc(S(=O)(=O)N2CCC(Nc3ncc4cc(C(F)F)c(=O)n([C@H]5C[C@@H]6CC[C@H]5C6)c4n3)CC2)n1 next?
7.18

Can you check CN(C)S(=O)(=O)N1CCC(Nc2ncc3cc(C#N)c(=O)n(C4CCCC4)c3n2)CC1 next?
5.53

Can you check N#Cc1cc2cnc(NC3CCN(S(=O)(=O)c4ccc(F)cc4)CC3)nc2n(C2CCCC2)c1=O next?
6.80

Can you check N#Cc1cc2cnc(NC3CCN(S(=O)(=O)N4CCOCC4)CC3)nc2n(C2CCCC2)c1=O next?
6.63

Can you check CC(C)S(=O)(=O)N1CCC(Nc2ncc3cc(C#N)c(=O)n(C4CCCC4)c3n2)CC1 next?
6.44

Can you check N#Cc1cc2cnc(NC3CCN(S(=O)(=O)CC(F)(F)F)CC3)nc2n(C2CCCC2)c1=O next?
5.86
